Provide the reported viability, T/C of each item.
Tested on: 388556-164-R-J1-PDC complex spheroid viability;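 note: spheroids exposed to compound for 7 days before readout; 100% = DMSO vehicle control luminescence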
Test: Anticancer human tumor 388556-164-R-J1-PDC patient-derived colon adenocarcinoma cell line growth inhibition [RAS]
Details: second compound 0.000949 µM; first compound 0.0316 µM; stronger effect = lower value
Numbers only, in %.

Compound	Subject Of Test	viability, T/C (%)
CC(C)NCC(C(=O)N1CCN(c2ncnc3c2C(C)CC3O)CC1)c1ccc(Cl)cc1 (centres undefined) + CCn1c(-c2cc(N3CCN(C)CC3)cnc2C(C)OC)c2c3cc(ccc31)-c1csc(n1)CC(NC(=O)C1CC1C)C(=O)N1CCCC(N1)C(=O)OCC(C)(C)C2	388556-164-R-J1-PDC complex spheroid viability	105
CC(=O)OC12COC1CC(O)C1(C)C(=O)C(O)C3=C(C)C(OC(=O)C(O)C(NC(=O)OC(C)(C)C)c4ccccc4)CC(O)(C(OC(=O)c4ccccc4)C21)C3(C)C (centres undefined) + CCn1c(-c2cccnc2C(C)OC)c2c3cc(ccc31)N1CCOC(CC(NC(=O)C(C(C)C)N(C)C(=O)C3(F)CCN(C(=O)C#CC(C)(C)N(C)C)CC3)C(=O)N3CCCC(N3)C(=O)OCC(C)(C)C2)C1	388556-164-R-J1-PDC complex spheroid viability	86
NC1c2ccccc2OC12CCN(c1cnc3c(N4CCCc5ncccc54)n[nH]c3n1)CC2 (centres undefined) + CCn1c(-c2cccnc2C(C)OC)c2c3cc(ccc31)N1CCOC(CC(NC(=O)C(C(C)C)N(C)C(=O)C3(F)CCN(C(=O)C#CC(C)(C)N(C)C)CC3)C(=O)N3CCCC(N3)C(=O)OCC(C)(C)C2)C1	388556-164-R-J1-PDC complex spheroid viability	63.8

# input compound: Nc1ccn(C2OC(CO)C(O)C2(F)F)c(=O)n1 (centres undefined) + CCn1c(-c2cc(N3CCN(C)CC3)cnc2C(C)OC)c2c3cc(ccc31)-c1csc(n1)CC(NC(=O)C1CC1C)C(=O)N1CCCC(N1)C(=O)OCC(C)(C)C2 ; wanted: its viability, T/C
76.6

Data provenance is PubChem BioAssay AID2060907.
